molecular target: human TPO (HEK-TPOA7 cell lysate) (Homo sapiens); construct: We have transfected the full length of TPO, which is 933 amino acids; expressed in transfected cells; host or cells: HEK293T (clone HEK-TPOA7), lentiviral transduction, CMV promoter; experiment: AUR-TPO assay, HEK-TPOA7 cell lysate; type: biochemical; settings: current study, n ≥ 3; pH 7.2, 40 µM H2O2; NA = not active up to the highest tested concentration; read-out: AUR assay IC50, HEK-TPOA7
Sequence (P07202 19-933): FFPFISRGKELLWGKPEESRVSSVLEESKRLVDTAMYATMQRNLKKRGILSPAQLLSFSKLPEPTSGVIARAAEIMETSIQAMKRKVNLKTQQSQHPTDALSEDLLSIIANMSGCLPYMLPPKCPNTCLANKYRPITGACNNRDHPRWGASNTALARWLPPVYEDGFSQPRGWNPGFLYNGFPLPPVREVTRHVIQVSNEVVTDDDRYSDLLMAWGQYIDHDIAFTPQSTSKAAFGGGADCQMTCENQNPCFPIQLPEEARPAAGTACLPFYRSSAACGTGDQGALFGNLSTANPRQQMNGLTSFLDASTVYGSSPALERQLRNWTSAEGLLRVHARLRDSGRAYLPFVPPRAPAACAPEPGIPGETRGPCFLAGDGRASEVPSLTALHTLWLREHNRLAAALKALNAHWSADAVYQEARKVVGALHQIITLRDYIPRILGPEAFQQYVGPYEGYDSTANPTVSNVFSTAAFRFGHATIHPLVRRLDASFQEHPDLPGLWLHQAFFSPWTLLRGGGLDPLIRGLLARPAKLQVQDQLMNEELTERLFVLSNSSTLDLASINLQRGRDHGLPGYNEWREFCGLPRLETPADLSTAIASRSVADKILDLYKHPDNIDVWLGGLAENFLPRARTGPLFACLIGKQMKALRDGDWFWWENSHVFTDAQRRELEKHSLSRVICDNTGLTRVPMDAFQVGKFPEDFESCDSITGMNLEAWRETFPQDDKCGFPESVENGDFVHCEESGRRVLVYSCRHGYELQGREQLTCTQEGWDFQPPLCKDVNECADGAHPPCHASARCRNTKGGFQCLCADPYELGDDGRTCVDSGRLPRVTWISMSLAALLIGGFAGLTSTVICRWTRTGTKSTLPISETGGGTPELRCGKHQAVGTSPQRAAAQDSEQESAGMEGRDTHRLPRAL
property name: IC50 (µM)
Answer with a number only, understood to be in µM.

Oc1cccc(O)c1    0.358
CC(C)(c1cc(Br)c(O)c(Br)c1)c1cc(Br)c(O)c(Br)c1    8.65
O=C(c1ccc(O)cc1O)c1ccc(O)cc1O [BP2, 2,2′-4,4′-tetrahydroxy benzophenone]    0.56

Okay, next one:
Form field IC50, entry Cn1cc[nH]c1=S [MMI, Methimazole, reference compound] : 1.5
